system: normal primary NK cells, pool 3 (3 donors) (IL-2 2.5 ng/mL); assay: percent inhibition of viability; higher = more inhibition; conditions: 72 h; 2500 nM
measured.parameter: percent inhibition of viability (%)

| compound | measured.parameter | recorded.value |
| --- | --- | --- |
| COc1cc(C(=O)NC2CCN(C)CC2)c(F)cc1Nc1ncc2c(n1)N(C1CCCC1)CC(F)(F)C(=O)N2C [TAK-960] (max concentration tested 2500 nM) | percent inhibition of viability | -0.88 |
| Nc1nc(NC2CC2)cc(-c2cccc(Cl)c2Cl)n1 [TH588] (max concentration tested 25000 nM) | percent inhibition of viability | 2.77 |
| CCOc1cc2ncc(C#N)c(Nc3ccc(F)c(Cl)c3)c2cc1NC(=O)/C=C/CN(C)C [Pelitinib] (max concentration tested 2500 nM) | percent inhibition of viability | 94.4 |
| OCCn1cc(-c2cnc3nnn(Cc4ccc5ncccc5c4)c3n2)cn1 (max concentration tested 2500 nM) | percent inhibition of viability | 7.18 |
| CCn1nnc2c(N3CCOCC3)nc(-c3ccc(NC(=O)Nc4ccc(C(=O)N5CCN(C)CC5)cc4)cc3)nc21 [PKI-402] (max concentration tested 2500 nM) | percent inhibition of viability | 34.4 |
| CCNC(=O)Nc1ccc(-c2nc3c(c(N4CCOC[C@@H]4C)n2)CCN(C2COC2)C3)cc1 [RG-7603] (max concentration tested 2500 nM) | percent inhibition of viability | 10.1 |

###

tested on: SNK-6 (IL-2 2.5 ng/mL); assay: percent inhibition of viability; higher = more inhibition; details: 72 h; 10 nM

| compound | value.units | percent inhibition of viability |
| --- | --- | --- |
| Oc1c2ccccc2c2c3c(cccc13)N=N2 (max concentration tested 100000 nM) | % | -6.71 |
| Cc1ncc(-c2ccnc(Nc3ccc(S(C)(=O)=O)cc3)n2)n1C(C)C [AZD-5438] (max concentration tested 10000 nM) | % | -5.34 |
| CCc1cc(Nc2nccc(-c3c(-c4ccc(OC)c(C(=O)Nc5c(F)cccc5F)c4)nc4ccccn34)n2)c(OC)cc1N1CCC(N2CCN(S(C)(=O)=O)CC2)CC1 (max concentration tested 10000 nM) | % | -8.81 |
| COc1cc(N2CCN(C)CC2)ccc1Nc1nccc(-c2cn(C)c3cnccc23)n1 [AZ191] (max concentration tested 10000 nM) | % | -11.7 |
| COc1cc2c(Oc3ccc(NC(=O)C4(C(=O)Nc5ccc(F)cc5)CC4)cc3F)ccnc2cc1OCCCN1CCOCC1 [Foretinib] (max concentration tested 1000 nM) | % | -7.01 |
| Cc1nc(C(=O)NCC(=O)O)c(O)c2ccc(Oc3ccccc3)cc12 [FG-4592] (max concentration tested 10000 nM) | % | -11.4 |

###

tested on: normal primary NK cells, pool 1 (3 donors) (IL-2 2.5 ng/mL); assay: percent inhibition of viability; higher = more inhibition; settings: 72 h; 1 nM
measured.parameter: percent inhibition of viability (%)

| molecule | measured.parameter | value.units | recorded.value |
| --- | --- | --- | --- |
| CNNCc1ccc(C(=O)NC(C)C)cc1 [Procarbazine] (max concentration tested 10000 nM) | percent inhibition of viability | % | -3.19 |
| COc1ccc(-c2nc(N3CCOCC3)c3sc(CN(C)c4ncc(C(=O)NO)cn4)cc3n2)cn1 [CUDC-907] (max concentration tested 10000 nM) | percent inhibition of viability | % | 2.74 |
| Cc1nc(N)sc1-c1ccnc(Nc2ccc(N3CCOCC3)cc2)n1 [CYC-116] (max concentration tested 10000 nM) | percent inhibition of viability | % | -7.14 |
| CCc1c(C(=O)C(N)=O)c2c(OCC(=O)O)cccc2n1Cc1ccccc1 [Varespladib] (max concentration tested 10000 nM) | percent inhibition of viability | % | -5.21 |
| COc1ccc(-c2ccc3c(N4CCOC[C@@H]4C)nc(N4CCOC[C@@H]4C)nc3n2)cc1CO [AZD8055] (max concentration tested 10000 nM) | percent inhibition of viability | % | -5.65 |
| Cc1c(NC(=O)OC[C@@H]2COCCN2)cn2ncnc(Nc3ccc4c(cnn4Cc4cccc(F)c4)c3)c12 (max concentration tested 10000 nM) | percent inhibition of viability | % | 1.48 |
| CCC/C=C/C=C/C(=O)O[C@H]1/C(=C/C(=O)OC)C[C@H]2C[C@H]([C@@H](C)O)OC(=O)C[C@H](O)C[C@@H]3C[C@H](OC(C)=O)C(C)(C)[C@](O)(C[C@@H]4C/C(=C/C(=O)OC)C[C@H](/C=C/C(C)(C)[C@]1(O)O2)O4)O3 [Bryostatin 1] (max concentration tested 100 nM) | percent inhibition of viability | % | -14.9 |
| O=C(NC1CCNCC1)c1n[nH]cc1NC(=O)c1c(Cl)cccc1Cl [AT7519] (max concentration tested 10000 nM) | percent inhibition of viability | % | -13.5 |
| COc1cc2ncnc(Oc3cccc(NC(=O)Nc4cc(C(C)(C)C(F)(F)F)on4)c3)c2cc1OC (max concentration tested 10000 nM) | percent inhibition of viability | % | -8.45 |
| CN(C)C[C@@H]1CCn2cc(c3ccccc32)C2=C(C(=O)NC2=O)c2cn(c3ccccc23)CCO1 [Ruboxistaurin] (max concentration tested 10000 nM) | percent inhibition of viability | % | -7.03 |
| CO[C@@H]1[C@H](N(C)C(=O)c2ccccc2)C[C@H]2O[C@]1(C)n1c3ccccc3c3c4c(c5c6ccccc6n2c5c31)C(=O)NC4 [Midostaurin] (max concentration tested 10000 nM) | percent inhibition of viability | % | -13 |
| Cc1cc(OCc2nnc(SC3CCCC3)n2-c2cccnc2)ccc1-c1ccc(S(C)(=O)=O)cc1 [NMS-873] (max concentration tested 10000 nM) | percent inhibition of viability | % | 6.16 |
| CC(C)C(=O)Nc1ccc([N+](=O)[O-])c(C(F)(F)F)c1 [Flutamide] (max concentration tested 10000 nM) | percent inhibition of viability | % | -3.89 |
| CC(=O)[C@]1(O)Cc2c(O)c3c(c(O)c2[C@@H](O[C@H]2C[C@H](N)[C@H](O)[C@H](C)O2)C1)C(=O)c1ccccc1C3=O [Idarubicin] (max concentration tested 1000 nM) | percent inhibition of viability | % | -3.53 |
| COc1ccccc1S(=O)(=O)Nc1ccc2c(c1)CN(C)C(=O)N2 [PFI-1] (max concentration tested 10000 nM) | percent inhibition of viability | % | 1.67 |
| N[C@@H]1CCCN(c2c(/C=C3\SC(=O)NC3=O)cccc2-c2ccccc2)C1 [AZD1208] (max concentration tested 10000 nM) | percent inhibition of viability | % | -8.45 |
| CN(C)/N=N/c1[nH]cnc1C(N)=O [Dacarbazine] (max concentration tested 10000 nM) | percent inhibition of viability | % | 1.02 |
| O=C(CCBr)N1CCN(C(=O)CCBr)CC1 [Pipobroman] (max concentration tested 10000 nM) | percent inhibition of viability | % | 1.85 |
| C/C(=C\c1csc(C)n1)[C@@H]1C[C@@H]2O[C@]2(C)CCC[C@H](C)[C@H](O)[C@@H](C)C(=O)C(C)(C)[C@@H](O)CC(=O)O1 [Patupilone] (max concentration tested 1000 nM) | percent inhibition of viability | % | -4.17 |
| CC(C)(C)Cn1c(N)nc2ccc(-c3[nH]c(C(C)(C)C)nc3-c3ccc(F)cc3)nc21 [Ralimetinib] (max concentration tested 10000 nM) | percent inhibition of viability | % | -10.9 |
| CN(C)Cc1ccc(S(=O)(=O)n2ccc(/C=C/C(=O)NO)c2)cc1 [Resminostat] (max concentration tested 10000 nM) | percent inhibition of viability | % | 2.24 |
| Nc1ncnc2c1c(COc1cccc(Cl)c1)nn2C1CCOCC1 (max concentration tested 10000 nM) | percent inhibition of viability | % | -5.02 |
| O=C(c1cc(Cc2n[nH]c(=O)c3ccccc23)ccc1F)N1CCN(C(=O)C2CC2)CC1 [Olaparib] (max concentration tested 10000 nM) | percent inhibition of viability | % | 3.22 |
| CNCc1ccc(-c2[nH]c3cc(F)cc4c3c2CCNC4=O)cc1 [Rucaparib] (max concentration tested 10000 nM) | percent inhibition of viability | % | 4.59 |
| Cc1c(Cn2c(C)nc3c(C(=O)O)cc(N4CCOCC4)cc32)cccc1C(F)(F)F (max concentration tested 10000 nM) | percent inhibition of viability | % | -6.21 |
| CCN(c1cc(-c2ccc(CN3CCOCC3)cc2)cc(C(=O)NCc2c(C)cc(C)[nH]c2=O)c1C)C1CCOCC1 [E7438] (max concentration tested 10000 nM) | percent inhibition of viability | % | 3.3 |

###

tested on: YT (IL-2 2.5 ng/mL); test: relative IC50 (inflection point of fitted viability curve, relative to fitted max inhibition); higher = less sensitive; conditions: 72 h

| smiles.input | value.units | relation.symbol | relative IC50 |
| --- | --- | --- | --- |
| CN1CCc2c(c3ccccc3n2Cc2ccc(C(=O)NO)cc2)C1 | nM | = | 2420 |
| CNNCc1ccc(C(=O)NC(C)C)cc1 | nM | > | 10000 |
| CN(C)C[C@@H]1CCn2cc(c3ccccc32)C2=C(C(=O)NC2=O)c2cn(c3ccccc23)CCO1 | nM | = | 2730 |
| Cc1ncc(-c2ccnc(Nc3ccc(S(C)(=O)=O)cc3)n2)n1C(C)C | nM | = | 1570 |
| Nc1nc(NC2CC2)cc(-c2cccc(Cl)c2Cl)n1 | nM | = | 2120 |
